B1: library; numbered along this chain (parent)
chain: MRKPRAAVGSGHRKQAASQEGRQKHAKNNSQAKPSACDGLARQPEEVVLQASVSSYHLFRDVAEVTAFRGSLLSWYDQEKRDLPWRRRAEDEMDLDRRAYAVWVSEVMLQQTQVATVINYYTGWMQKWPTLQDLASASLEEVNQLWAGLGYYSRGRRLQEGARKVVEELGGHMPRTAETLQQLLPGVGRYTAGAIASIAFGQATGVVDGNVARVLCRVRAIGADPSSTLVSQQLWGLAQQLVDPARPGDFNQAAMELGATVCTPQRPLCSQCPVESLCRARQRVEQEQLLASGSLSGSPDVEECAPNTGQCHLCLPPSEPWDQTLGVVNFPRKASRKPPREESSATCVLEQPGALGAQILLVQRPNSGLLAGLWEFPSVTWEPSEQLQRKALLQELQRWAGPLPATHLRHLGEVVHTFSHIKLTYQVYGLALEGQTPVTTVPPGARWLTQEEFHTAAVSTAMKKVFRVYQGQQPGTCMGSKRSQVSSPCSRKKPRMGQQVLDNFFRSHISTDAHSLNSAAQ

variants of: B1; test: 8OG:A repair function score (normalized; synonymous = 0, nonsense = -1) (normalized log-likelihood score); higher = more repair activity (WT-like); conditions: with 8OG:A DNA repair reporter (GFP) in HEK-293 MUTYH KO cells;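 note: cells sorted at 72 h after reporter transfection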
8OG:A repair function score vs -0.09: at or above is 1 (yes), below is 0 (no).

Examples from the recorded data:
{"mutation": "S335W", "group": "0 (no)"}
{"mutation": "A334Q", "group": "0 (no)"}

[in] Test whether the variant V379S records 8OG:A repair function score of -0.09 or higher.
[out] 1 (yes)

[in] Test whether the variant R336T records 8OG:A repair function score of -0.09 or higher.
[out] 0 (no)

Source: the supplement of paper PMC11908140
